assay: qHTS of pediatric cancer cell lines to identify multiple opportunities for drug repurposing: Primary screen for NB1643 cells (AID 1347099); also: nearly all actives have a fitted effect of over 50% in size
recorded conditions: NB1643 neuroblastoma viability, CellTiter-Glo luminescence, 48 h; series mostly up to 46 µM
Records with an inconclusive call do not appear. The source made the active and inactive calls. Calls follow the shape of the dose curve; as a rule, active = well fitted cell-killing curve with a large enough effect; inconclusive = small, poorly fitted or top-dose-only effect; inactive = no such curve, though single readings can be large or run the other way.
Return exactly one item of true (1) (active), false (0) (inactive)

# example entries with known answers
[
  {
    "compound": "CC1(C)NC(=O)N(c2ccc([N+](=O)[O-])c(C(F)(F)F)c2)C1=O",
    "assigned class": "false (0)"
  },
  {
    "compound": "COc1cc(C(C)=O)ccc1OCCCN1CCC(c2noc3cc(F)ccc23)CC1",
    "assigned class": "false (0)"
  },
  {
    "compound": "N[C@@H](Cc1cc(I)c(Oc2cc(I)c(O)c(I)c2)c(I)c1)C(=O)O",
    "assigned class": "false (0)"
  },
  {
    "compound": "Cc1cc(=O)oc2cc(O)ccc12",
    "assigned class": "false (0)"
  }
]

What was the test verdict on O=C(O)c1cn(-c2ccc(F)cc2)c2cc(N3CCNCC3)c(F)cc2c1=O ?
false (0)

Note, next up: Cc1nc2n(c(=O)c1CCN1CCC(c3noc4cc(F)ccc34)CC1)CCCC2
false (0)

Also check NCCCCNCCCN
true (1)

Also, N=C(N=C(N)N)N1CCOCC1 please.
false (0)

Entry to check: N=C(N)c1ccc2cc(OC(=O)c3ccc(N=C(N)N)cc3)ccc2c1
false (0)

Now try CCCCN(CCCC)CCC(O)c1cc2c(Cl)cc(Cl)cc2c2cc(C(F)(F)F)ccc12 (stereo unspecified) .
false (0)

Could you do the same for CCN(CC)CCOc1ccc(Cc2ccccc2)cc1 , please?
false (0)

----------
assay: Quantitative High-Throughput drug screen in 47 multiple myeloma cell lines against the NCATS MIPE library collection: OCIMY5_PLB cell viability assay (AID 1918988); also: potency is read from the fitted curve at half-maximal effect; nearly all actives have a fitted effect of over 65% in size
recorded conditions: OCI-MY5 myeloma viability, ATP luminescence, 48 h; series mostly up to 45.8 µM
Results filed as inconclusive are left out. Active and inactive are the calls of the source. The call rests on the fitted dose curve; in most records, active means well fitted cell-killing curve with a large enough effect; inconclusive means small, poorly fitted or top-dose-only effect, or effect the other way; inactive means no such curve, though single readings can be large or run the other way.
property label: Potency

Examples from the recorded data:
[
  {
    "item smiles": "O=c1cc(N2CCOCC2)oc2c(-c3ccccc3)cccc12",
    "Potency": "13.2 µM (active)"
  },
  {
    "item smiles": "CC1(C)C(=O)N(CCN2CCC(C(=O)c3ccc(F)cc3)CC2)c2ccccc21",
    "Potency": "5.26 µM (active)"
  }
]

Can you look up the measured Potency of CCCCc1ccc2nc(NC(=O)OC)[nH]c2c1 for me?
0.0037 µM (active)

----------
Test system: CAOV3
assay: Primary qHTS to identify gynecologic anti-cancer compounds using libraries of approved drugs and bioactive compounds (AID 1345084); also: nearly all actives have a fitted effect of over 55% in size
recorded conditions: Gynecologic cancer cell panel viability, ATPlite luminescence, 48 h; series mostly up to 57.5 µM
Records with an inconclusive call do not appear. The source made the active and inactive calls. The call rests on the fitted dose curve; in most records, active means well fitted cell-killing curve with a large enough effect; inconclusive means small, poorly fitted or top-dose-only effect, or effect the other way; inactive means flat fitted curve, though single readings scatter.
Response enum: TRUE for active, FALSE for inactive

Example results:
[
  {
    "compound": "Cc1cccc(CN2CCN(C(c3ccccc3)c3ccc(Cl)cc3)CC2)c1 (stereo not drawn)",
    "measurement target": "CAOV3",
    "assigned class": "FALSE"
  },
  {
    "compound": "CN(C)c1ccc(O)c2c1C[C@H]1C[C@H]3[C@H](N(C)C)C(=O)C(C(N)=O)=C(O)[C@@]3(O)C(=O)C1=C2O",
    "measurement target": "CAOV3",
    "assigned class": "FALSE"
  },
  {
    "compound": "Clc1ccc(C(Cn2ccnc2)OCc2ccsc2Cl)c(Cl)c1 (stereo not drawn)",
    "measurement target": "CAOV3",
    "assigned class": "FALSE"
  }
]

Please indicate how the test categorized Cc1ccc(Nc2nccc(N(C)c3ccc4c(C)n(C)nc4c3)n2)cc1S(N)(=O)=O .
FALSE

Next up: CC(C)c1nc(CN(C)C(=O)N[C@H](C(=O)N[C@@H](Cc2ccccc2)C[C@H](O)[C@H](Cc2ccccc2)NC(=O)OCc2cncs2)C(C)C)cs1
FALSE

Input COc1ccc2cc([C@H](C)C(=O)O)ccc2c1
FALSE

Same lookup for COC(=O)N[C@H](C(=O)N[C@@H](Cc1ccccc1)[C@@H](O)CN(Cc1ccc(-c2ccccn2)cc1)NC(=O)[C@@H](NC(=O)OC)C(C)(C)C)C(C)(C)C , please.
FALSE

Also CC(C)Oc1ccc2c(=O)c(-c3ccccc3)coc2c1 ?
TRUE

The measured values listed here are drawn from PubChem BioAssay (NCATS).
